Hey, just so you know, these numbers are from paper PMC13480645.

Consider the following binders and their measured Kd readings.
# system.name: SARS-CoV-2 S-2P protein (SARS-CoV-2, ancestral (Wuhan-Hu-1) …, UniProt P0DTC2, stabilised)
# procedure.summary: BLI
# test.settings: both partners purified
I only need the number, in nM, no unit after it.

Study these solved cases before continuing.
eCC65.1-13 (antibody, V domains shown) VH: EVQLVQSGAEVKKPGASVKVSCKASGYTFTSQYMHWVRQAPGQGLEWMGIIDPSGGGTSYAQKFRDRVSMTRDTPTSTVYMELRSLRSEDTAVYYCASLWFENPSWRDYWGQGTLVTVSS VL: VMTQSPGTLSLSPGERATLSCRASQTVNKNYLAWYQQKPGQAPRLLIYGASSRATGIPDRFSGSGSGTDFTLTISRLEPEDFAVYYCQQYGASPPLFTFGPGTKLEIK; 0.0819
eCC65.1-6 (antibody, V domains shown) VH: EVQLVQSGAEVKKPGASVKVSCKASGYTFTSQYMHWVRQAPGQGLEWMGIIDPSGGGTSYAQKFRDRVSMTRDTPTSTVYMELRSLRSEDTAVYYCASLWFENPSWRDYWGQGTLVTVSS VL: VMTQSPGTLSLSPGERATLSCRASQTVNKNYLAWYQQKPGQAPRLLIYHASSRATGIPDRFSGSGSGTDFTLTISRLEPEDFAVYYCQQYGSSPPLFTFGPGTKLEIK; 0.0472
eCC65.1-8 (antibody, V domains shown) VH: VQLVQSGAEVKKPGASVKVSCKASGYEFTSQYMHWVRQAPGQGLEWMGIIDPSGGGASYAQKFRDRVSMTRDTPTSTVYMELRSLRSEDTAVYYCASLWFGNPSWRDYWGQGTLVTVSS VL: VMTQSPGTLSLSPGERATLSCRASQTVNSNYLAWYQQKPGQAPRLLIYHASSRATGIPDRFSGSGSGTDFTLTISRLEPEDFAVYYCQQYQSSPPLFTFGPGTKLEIK; 0.945
eCC65.1-4 (antibody, V domains shown) VH: VQLVQSGAEVKKPGASVKVSCKASGYTFESQYMHWVRQAPGQGLEWMGIIDPKGGGTSYAQKFRDRVSMTRDTPTSTVYMELRSLRSEDTAVYYCASLWFETPSWRDYWGQGTLVTVSS VL: VMTQSPGTLSLSPGERATLSCRASQTVNKNYLAWYQQKPGQAPRLLIYGASSRATGIPDRFSGSGSGTDFTLTISRLEPEDFAVYYCQTYGSSPPLFTFGPGTKLEIK; 0.0136
eCC65.1-7 (antibody, V domains shown) VH: VQLVQSGAEVKKPGASVKVSCKASGYSFTSQYMHWVRQAPGQGLEWMGIIDPSGGGTSYAQKFRDRVSMTRDTPTSTVYMELRSLRSEDTAVYYCASLWFENPSWRDYWGQGTLVTVSS VL: VMTQSPGTLSLSPGERATLSCRASQTVNKNYLAWYQQKPGQAPRLLIYHASSRATGIPDRFSGSGSGTDFTLTISRLEPEDFAVYYCQQYGASPPLFTFGPGTKLEIK; 0.157
eCC65.1-11 (antibody, V domains shown) VH: VQLVQSGAEVKKPGASVKVSCKASGYEFTSQYMHWVRQAPGQGLEWMGIIDPSGGGASYAQKFRDRVSMTRDTPTSTVYMELRSLRSEDTAVYYCASLWFGNPSWRDYWGQGTLVTVSS VL: VMTQSPGTLSLSPGERATLSCRASSTVNSNYLAWYQQKPGQAPRLLIYHASSRATGIPDRFSGSGSGTDFTLTISRLEPEDFAVYYCQQYGASPPLFTFGPGTKLEIK; 0.801

Now, please, on to the next binder.
Query block: Reported Kd for eCC65.1-1 (antibody, V domains shown) VH: VQLVQSGAEVKKPGASVKVSCKASGYEFTSQYMHWVRQAPGQGLEWMGIIDPSGGGASYAQKFRDRVSMTRDTPTSTVYMELRSLRSEDTAVYYCASLWFGNPSWRDYWGQGTLVTVSS VL: VMTQSPGTLSLSPGERATLSCRASQTVNSNYLAWYQQKPGQAPRLLIYHASSRATGIPDRFSGSGSGTDFTLTISRLEPEDFAVYYCQQYGASPPLFTFGPGTKLEIK : what is it?
Result block: 0.843
